Test system: Fibroblast
Assay: Multiplex assay against human fibroblast
Format: toxicity, cell-based
Conditions: 24 h, 1 µM, compound concentration 1 uM, replicate 2
Assign class by Population Apoptotic (%): not lower than 50% means true; lower than 50% means false.

Before answering, review these 10 worked examples.
C=CCn1c(=O)c2cnc(Nc3ccc(N4CCN(C)CC4)cc3)nc2n1-c1cccc(C(C)(C)O)n1 = false
Cc1cn(-c2cc(NC(=O)c3ccc(C)c(Nc4nccc(-c5cccnc5)n4)c3)cc(C(F)(F)F)c2)cn1 = false
COC(=N)c1nc2ccc3ncnc(Nc4ccc(OC)cc4F)c3c2s1 = false
C=C1/C(=C\C=C2/CCC[C@]3(C)[C@@H]([C@H](C)/C=C/[C@H](C)C(C)C)CC[C@@H]23)C[C@@H](O)C[C@@H]1O = false
CN1CCN(C(=O)C(C)(C)c2ccc(C(=O)Nc3cn4cc(-c5cc(C(C)(C)C)cc(C(C)(C)C)c5)ccc4n3)cc2)CC1 = false
Cn1nc(C(F)(F)F)cc1-c1cnc(N2CCc3cc(S(=O)(=O)Nc4c(F)cc(Cl)cc4F)cc(N4CCCC4=O)c32)nc1 = true
Cc1cc(C)c(S(=O)(=O)N(Cc2ccc(-c3cccc(S(C)(=O)=O)c3)cc2)Cc2ccc(C(F)(F)F)o2)c(C)c1 = false
COc1cc2ncnc(Nc3ccc(F)c(Cl)c3)c2cc1NC(=O)/C=C/CN1CCCCC1 [DACOMITINIB ANHYDROUS] = true
CCN1CCN(Cc2ccc(Nc3ncc(F)c(-c4cc(F)c5nc(C)n(C(C)C)c5c4)n3)nc2)CC1.CS(=O)(=O)O = true
CCn1c(=O)c(-c2ccc(-c3cncs3)cc2Cl)cc2cnc(Nc3ccc(N4CCN(C)CC4)cc3)nc21 = false

hey, is Population Apoptotic (%) for this one >= 50%? `Cl.O=c1c2cccn2c2ccccc2n1CCCN1CCC(c2ccc(Cl)cc2)CC1`
false

Decide: Population Apoptotic (%) of `CCOc1cc(C(=O)N2CCC(N3CCN(C)CC3)CC2)ccc1Nc1ncc2c(n1)N(C1CCCC1)c1ccccc1C(=O)N2C` >= 50%?
false

Determine whether measured Population Apoptotic (%) meets or exceeds 50% for `COc1ccc(-c2ccc3c(N4CCOCC4)nc(N4C[C@@H](C)O[C@@H](C)C4)nc3n2)cc1CO`
true

###

Tested on: HEK-293T
Assay: Multiplex assay against HEK293T;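 for Population Tubulin-Different-Phenotype (%): share of the cells with healthy nuclei that show this phenotype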
Assay type: toxicity, cell-based
Details: human, 48 h, 1 µM, compound concentration 1 uM, replicate 1
Would you mind labelling by Population Tubulin-Different-Phenotype (%)? At or over 50% is condition met, under is condition not met.

Use these answered entries as a reference point.
O=C(Cc1ccc(-c2ccc(OCCN3CCOCC3)cc2)cn1)NCc1ccccc1 = condition not met
CN1CCC(=C2c3ccccc3CC(=O)c3sccc32)CC1.O=C(O)/C=C/C(=O)O [KETOTIFEN FUMARATE] = condition met
S=C(NCCCc1c[nH]cn1)NCCCN(Cc1ccc(Cl)c(Cl)c1)c1ccc(Br)cn1 = condition met
O=C1NC(=O)C(c2cnc3ccccn23)=C1c1cn2c3c(cc(F)cc13)CN(C(=O)N1CCCCC1)CC2 = condition met

Consider the record given below.
State whether the measured Population Tubulin-Different-Phenotype (%) reaches 50%, counting equality as reaching it, for `Cc1ccc(C(=O)Nc2cccc(C(F)(F)F)c2)cc1Nc1nc(-c2cccnc2)nc2c1cnn2C`
condition met

###

Tested on: U2OS
Assay: Multiplex assay against U2OS
Assay type: toxicity, cell-based
Conditions: human, 24 h, 1 µM, compound concentration 1 uM, replicate 2
Quick list: Population Normal (%) per entry.
Answer format: numeric, % implied, no suffix.

Here's what some known entries look like.
CNC(=O)c1ccc(Nc2nc(OC3CCCC3)c3c(-c4ccc5nc(C)oc5c4)c[nH]c3n2)c(OC)c1 = 88
S=C(NCCCc1c[nH]cn1)NCCCN(Cc1ccc(Cl)c(Cl)c1)c1ccc(Br)cn1 = 91
COC(=N)c1nc2ccc3ncnc(Nc4ccc(OC)cc4F)c3c2s1 = 91

Continue with the compound presented below.
Requested field: Population Normal (%). Item: `CCCS(=O)(=O)Nc1ccc(F)c(C(=O)c2c[nH]c3ncc(Cl)cc23)c1F`
88

###

Tested on: HEK-293T
Test: Incucyte cell viability with HEK293T; note: filed as whole numbers so only -1 and 0 and 1 occur
Assay type: toxicity, cell-based
Details: human, 12 h, 10 µM, compound concentration 10 uM, replicate number 1, timepoint 12 hours
value_kind: Growth Rate
Reply with just the number.

Sample answers from the record:
C[C@]12CCC(=O)C=C1CC[C@@H]1[C@@H]2[C@@H](O)C[C@]2(C=O)[C@@H](C(=O)CO)CC[C@@H]12 = 1
O=C1NC(c2ccccn2)Sc2ccccc21 (stereo not drawn) = 0
Cl.O=C(O)Cc1cccc(OCCCN(Cc2cccc(C(F)(F)F)c2Cl)CC(c2ccccc2)c2ccccc2)c1 = 1

Report Growth Rate for `CNc1cc(Oc2cc(C(=O)Nc3cc(N4CCN(C)CC4)cc(C(F)(F)F)c3)ccc2C)ncn1` please.
0

Please report the recorded Growth Rate for CN(C)[C@H]1CCN(c2cc(-c3ccccc3)nc3ccnn23)C1 [(S)-ZINC-3573] .
0

Need Growth Rate of `C[C@@H]1CN(c2cc(-c3n[nH]c4ccc(OC5(C)CC5)cc34)ncn2)C[C@H](C)O1` , thanks.
1

Consider the compound `COc1ccnc(N2CCC3(CCCN(Cc4c[nH]c5ccccc45)C3=O)CC2)n1` and give its measured Growth Rate.
1

Look at this compound and give its reported Growth Rate. `CCC[C@H](Oc1cc(C)c(-n2cc(C(F)(F)F)cn2)c(C)c1)c1ccc(C(=O)NCCC(=O)O)cc1`
0

Fill in: Growth Rate of NC(CCP(=O)(O)O)C(=O)O (racemic) is ___
1

Which value of Growth Rate has been reported for `CC(C)NC(=O)c1ccc(C#Cc2ccncc2)cn1` in the records?
0

// Growth Rate lookup, key: `COc1cc(-c2cn(C)c(=O)c3cnccc23)c(OC)cc1CN(C)C`
1

Give the measured Growth Rate of CCOC(=O)c1c(C)[nH]c2ccc3c(c12)CN1CCc2cc(OC)ccc2C1O3 (stereo not drawn) .
0

Which Growth Rate value belongs to `S=C(NCCCc1c[nH]cn1)NCCCN(Cc1ccc(Cl)c(Cl)c1)c1ccc(Br)cn1` ?
0

###

System: HEK-293T
Assay: Multiplex assay against HEK293T
Format: toxicity, cell-based
Details: human, 12 h, 10 µM, compound concentration 10 uM, replicate 1
value_kind: Population Mitochondria Different-Phenotype (%)
Put down the number, then write its unit next to it.

Here's what some known entries look like.
COc1ccc(-c2ccc3c(N4CCOCC4)nc(N4C[C@@H](C)O[C@@H](C)C4)nc3n2)cc1CO = 10%
C=CCn1c(=O)c2cnc(Nc3ccc(N4CCN(C)CC4)cc3)nc2n1-c1cccc(C(C)(C)O)n1 = 16%
CCN1CCN(c2ccc(Nc3cc(N(C)C(=O)Nc4c(Cl)c(OC)cc(OC)c4Cl)ncn3)cc2)CC1 = 10%
O=C(Nc1ccc(-c2ccnc(Nc3ccc(N4CCOCC4)cc3)n2)cc1)[C@@H]1CCCN1 = 96%
O=C(Cc1ccc(-c2ccc(OCCN3CCOCC3)cc2)cn1)NCc1ccccc1 = 79%
Cc1cn(-c2cc(NC(=O)c3ccc(C)c(Nc4nccc(-c5cccnc5)n4)c3)cc(C(F)(F)F)c2)cn1 = 61%

Next up:
Which Population Mitochondria Different-Phenotype (%) value is on record for `COc1cc(N2CCN(C)CC2)ccc1Nc1ncc2c(n1)N(C)c1ccccc1C(=O)N2C` ?
92%

###

Tested on: HEK-293T
Experiment: Multiplex assay against HEK293T
Type: toxicity, cell-based
Conditions: human, 24 h, 1 µM, compound concentration 1 uM, replicate 1
Give label 1 when the value for Population Apoptotic (%) is at least 50%. Give label 0 when it is less.

Consider the worked cases shown below.
CN1C2CCC1CC(OC(c1ccc(F)cc1)c1ccc(F)cc1)C2.Cl (stereo not given) = label 0
CCn1cc(-c2ccnc3[nH]c(-c4cccc(CN(C)C)c4)cc23)c(-c2ccc(NC(=O)N(C)C)cc2)n1 [GSK-1070916] = label 0
CCn1c(=O)c(-c2ccc(-c3cncs3)cc2Cl)cc2cnc(Nc3ccc(N4CCN(C)CC4)cc3)nc21 = label 1
Cl.O=c1c2cccn2c2ccccc2n1CCCN1CCC(c2ccc(Cl)cc2)CC1 = label 1

Now for another entry.
# check: Population Apoptotic (%) of C=C1/C(=C\C=C2/CCC[C@]3(C)[C@@H]([C@H](C)/C=C/[C@H](C)C(C)C)CC[C@@H]23)C[C@@H](O)C[C@@H]1O [DOXERCALCIFEROL] is greater than or equal to 50%
label 1

###

System: Fibroblast
Assay: Incucyte cell viability with human fibroblast; note: filed as whole numbers so only -1 and 0 and 1 occur
Format: toxicity, cell-based
Settings: 6 h, 10 µM, compound concentration 10 uM, replicate number 1, timepoint 6 hours
Growth Rate values, listed per item
Output spec: single numeric token, no unit.

Illustrative cases are given below, each with its answer.
O=C1NC(=O)C(c2cnc3ccccn23)=C1c1cn2c3c(cc(F)cc13)CN(C(=O)N1CCCCC1)CC2 [LY-2090314] = 0
CC(=O)C1=C(C)N(c2cccc(C(F)(F)F)c2)C(=O)N[C@@H]1c1ccc(C#N)nc1 [BAY-678] = 1
COc1cc(N2CCC(N3CCN(C)CC3)CC2)ccc1Nc1ncc(Cl)c(Nc2ccccc2P(C)(C)=O)n1 [BRIGATINIB] = 0
COC1CCN(c2cccc(-c3cc(NC(C)=O)nc(-n4nc(C)cc4C)n3)n2)CC1 = 1
CCN1CCN(c2ccc(Nc3cc(N(C)C(=O)Nc4c(Cl)c(OC)cc(OC)c4Cl)ncn3)cc2)CC1 [INFIGRATINIB] = 1
CCNc1cc(N[C@H]2CC[C@H](O)CC2)nc(Nc2ccc3c(ccn3Cc3ccccc3)c2)n1 = 0

Okay, next one:
Query: Growth Rate; subject: CN1CCN(c2cnc3c(C4CCN(C(=O)c5ccc(OC(F)(F)F)cc5N)CC4)ncnc3c2)CC1 [BAY-885]
0
